Hey, just so you know, these numbers are from patent US12473304B2.

Assayed target: human PAD4 (hPAD4) (Homo sapiens (Human), UniProt Q9UM07)
Sequence (Q9UM07 whole entry): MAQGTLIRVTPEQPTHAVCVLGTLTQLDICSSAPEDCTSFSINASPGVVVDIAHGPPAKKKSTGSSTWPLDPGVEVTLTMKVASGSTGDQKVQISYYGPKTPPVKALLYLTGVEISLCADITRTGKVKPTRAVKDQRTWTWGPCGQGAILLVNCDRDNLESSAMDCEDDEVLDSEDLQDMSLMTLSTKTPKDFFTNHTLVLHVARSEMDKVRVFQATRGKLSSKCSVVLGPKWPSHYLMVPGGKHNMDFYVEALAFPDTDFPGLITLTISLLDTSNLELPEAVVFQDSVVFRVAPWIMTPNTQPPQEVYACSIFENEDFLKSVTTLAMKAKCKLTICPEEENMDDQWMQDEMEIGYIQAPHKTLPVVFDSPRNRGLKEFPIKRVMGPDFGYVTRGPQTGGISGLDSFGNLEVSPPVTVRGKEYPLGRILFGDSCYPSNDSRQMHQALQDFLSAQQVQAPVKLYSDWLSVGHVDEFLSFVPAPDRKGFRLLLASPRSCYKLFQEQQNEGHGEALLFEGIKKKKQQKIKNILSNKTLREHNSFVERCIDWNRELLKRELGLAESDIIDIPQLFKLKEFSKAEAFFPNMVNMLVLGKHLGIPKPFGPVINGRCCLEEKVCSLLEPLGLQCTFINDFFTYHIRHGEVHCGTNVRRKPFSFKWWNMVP
Experiment summary: RFMS Human PAD4 Functional Assay 1
Run conditions: RFMS assay 1; 5 nM hPAD4, 250 μM BAEE substrate, 50 μM calcium, 37° C.
pIC50: −log10 of the molar value.
Measure: pIC50

>  <Compound>
COc1cc(C(=O)N2CCC[C@@H](N)C2)cn2nc(-c3cc4ccc(-c5ccc(CNC(C)=O)cc5)cc4n3CC3CC3)c(C)c12

>  <Experimental result>
6.03

$$$$
>  <Compound>
Cc1c(-c2cc3cccc(C4CN(C(=O)[C@H]5CCC[C@@H](O)C5)C4)c3n2CC2CC2)nn2cc(C(=O)N3C[C@H](N)C[C@@H](F)C3)ccc12

>  <Experimental result>
6.28

$$$$
>  <Compound>
COC1CCN(c2ccc3cc(-c4nn5cc(C(=O)N6CCC[C@@H](N)C6)cc(Cl)c5c4C)n(CC4CC4)c3n2)CC1

>  <Experimental result>
5.56

$$$$
>  <Compound>
COc1cc(C(=O)N2C[C@H](N)C[C@@H](F)C2)cn2nc(-c3cc4cccc(OCC5CNC(=O)C5)c4n3CC3CC3)c(C)c12 (single isomer, unassigned) [Example 565]

>  <Experimental result>
7.70

$$$$
>  <Compound>
COc1cc(C(=O)N2CC3CCC2[C@@H]3N)cc2oc(-c3cc4ccc(N5CCC(OC)CC5)cc4n3CC3CC3)c(C)c12 (stereo partly shown)

>  <Experimental result>
5.92

$$$$
>  <Compound>
Cc1c(-c2cc3ccc(-c4ccc5cn[nH]c5c4)nc3n2CC2CC2)nn2cc(C(=O)N3CC4CCC3[C@@H]4N)ccc12 (stereo partly shown)

>  <Experimental result>
6.68

$$$$
>  <Compound>
Cc1c(-c2cc3cccnc3n2CC2CC2)nn2cc(C(=O)N3C[C@H](N)C[C@@H](F)C3)cc(F)c12

>  <Experimental result>
6.05

$$$$
>  <Compound>
COc1cc(-c2ccc3cc(-c4nn5cc(C(=O)N6CC7CCC6[C@@H]7N)ccc5c4C)n(CC4CC4)c3n2)c(F)cn1 (stereo partly shown)

>  <Experimental result>
7.17

$$$$
>  <Compound>
COCC(=O)N1CCC(c2cc(F)cc3cc(-c4nn5cc(C(=O)N6CCC[C@@H](N)C6)ccc5c4C)n(CC4CC4)c23)CC1

>  <Experimental result>
7.15

$$$$
>  <Compound>
COc1cc(C(=O)N2CC3CCC2[C@@H]3N)cn2nc(-c3cc4ccc(-c5ccc6c(c5)C(=O)NC6)nc4n3CC3CC3)c(C)c12 (stereo partly shown)

>  <Experimental result>
7.22

$$$$
>  <Compound>
Cc1c(-c2cc3ccnc(OCCn4cnnc4)c3n2CC2CC2)nn2cc(C(=O)N3C[C@H](N)C[C@@H](F)C3)ccc12

>  <Experimental result>
6.60

$$$$
>  <Compound>
Cc1c(-c2cc3cccc(C4CCN(C(=O)C5CC(O)C5)CC4)c3n2CC2CC2)nn2cc(C(=O)N3C[C@H](N)C[C@@H](F)C3)cc(F)c12 (mixture of isomers)

>  <Experimental result>
5.08

$$$$
>  <Compound>
Cc1c(-c2cc3ccc(-c4ccc(N5CCCC5=O)cc4)nc3n2CC2CC2)nn2cc(C(=O)N3CC4CCC3[C@@H]4N)ccc12 (stereo partly shown)

>  <Experimental result>
8.00

$$$$
